Below, each entry is listed with its recorded inhibition.
# Protocol text: growth inhibition, single agents and combos, ICB984, cell-based, cisplatin or BGB combos, synergistic combos for chromothripsis tumors (AID 1671451);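 also: cells exposed for 96 hours before readout; 0% = vehicle DMSO and 100% = killing by high DMSO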
# Run conditions: ICB984 medulloblastoma cells, drug combinations, measured here: 5 uM single agent, at 5 µM, stronger effect = higher value
Dear colleague, please return just the value in %, with no unit written.

>  <Molecule smiles>
O=C(CCCCCCNC(=O)c1cnc(N(c2ccccc2)c2ccccc2Cl)nc1)NO

>  <inhibition / %>
-20.1

$$$$
>  <Molecule smiles>
O=c1cc(N2CCOCC2)oc2c1ccc1ccccc12

>  <inhibition / %>
0.403

$$$$
>  <Molecule smiles>
Nc1nc2n[nH]nc2c(=O)[nH]1

>  <inhibition / %>
-12.8

$$$$
>  <Molecule smiles>
O=C(O)CO.[NH2-].[NH2-].[Pt+2]

>  <inhibition / %>
-2.84

$$$$

q: Please report inhibition for the following molecule: CN[C@@H]1CN(c2ccc3c(=O)c(C(=O)O)cn(-c4nccs4)c3n2)C[C@H]1OC
a: -6.89

q: Please report inhibition for the following molecule: C=C1[C@H](CO)[C@@H](O)C[C@@H]1n1cnc2c(=O)[nH]c(N)nc21
a: -12.5

q: Please report inhibition for the following molecule: CN(C)C/C=C/C(=O)Nc1ccc(C(=O)Nc2cccc(Nc3ncc(Cl)c(-c4c[nH]c5ccccc45)n3)c2)cc1
a: 11.6

q: Please report inhibition for the following molecule: CS(=O)(=O)c1ccc(-c2nnc(/C=C/c3nnc(-c4ccc(C#N)cc4)o3)n2-c2ccccc2Cl)nc1
a: -5.85

q: Please report inhibition for the following molecule: COc1cc(C=O)c([N+](=O)[O-])cc1OC
a: -4.36
